Reported values of OD490 for individual entries
- measured_on: T1, human αvβ3 integrin ITGAVB3 (human, UniProt P06756 31-992; P05106 27-718, limits assumed)
- T1 construct: Recombinant heterodimer used as immunogen, ELISA coating and SPR ligand; also called A5B3; A5b3
- experiment_description: ELISA of soluble VHH (TG1 lysate), induced at 37 C, coated ITGAVB3
Respond numerically, and do not add a unit to the figure.

Consider the reported OD490 for these binders:
binder	observable	reported_result
VHH-16 (VHH, also called clone 16) VHH: DVQLVESGGGSVQPGGSLRLSCAASGYTVENSCMAWFRQAPGKEREVVATIVTNNATGTFYADSVKGRFTVSQDNAKNTLNLQMNSLEPEDTAMYYCAADTKWIVCSRGYRYTPNWANQFKYWGQGTQVTVSS	OD490	1.68
VHH-15 (VHH, also called clone 15) VHH: EVQLVESGGGSVQPGESLRLSCVASGYTVSSSCMAWFRQAPGKEREVVATIVVTSDTTSTFYADSVKGRFTISPDNAKNTLNLQMNSLEPPDTAMYYCAADRKWNVCSRGYRYTPNWANQFTFWGQGTQVTVSS	OD490	0.132
VHH-11 (VHH, also called clone 11) VHH: DVQLVESGGGSVQPGESLRLSCVASGYTVSSSCMAWFRQAPGKEREVVATIVVTSDTTSTFYADSVKGRFTISPDNAKNTLNLQMNSLEPSDTAMYYCAADRKWNVCSRGYRYTPNWANQFTFWGQGTLVTVSS	OD490	0.64
VHH-17 (VHH, also called clone 17) VHH: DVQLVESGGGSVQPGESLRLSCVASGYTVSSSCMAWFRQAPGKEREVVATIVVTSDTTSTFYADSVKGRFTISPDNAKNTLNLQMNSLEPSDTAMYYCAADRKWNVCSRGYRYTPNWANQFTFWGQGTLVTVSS	OD490	0.191
VHH-13 (VHH, also called clone 13) VHH: HVQLVESGGGSVQPGESLRLSCVASGYTVSSSCMAWFRQAPGKEREVVATIVVTSDTTSTFYADSVKGRFTISPDNAKNTLNLQMNSLEPSDTAMYYCAADRKWNVCSRGYRYTPNWANQFTFWGQGTQVTVSS	OD490	2
VHH-23 (VHH, also called clone 23) VHH: HVQLVESGGGSVQTGGSLRLSCAASGYTSSTVYMAWFRQTPGKQREGVAAIYTGGGPTYYADSVKGRFTISQDNAKNTVYLQMNTLKPEDTAMYYCAADRYVYRLVTNWYRPSFYTYWGQGTQVTVSS	OD490	0.16

Attention now shifts to the item below.
Look up OD490: VHH-20 (VHH, also called clone 20) VHH: DVQLVESGGGSVQPGGSLRLSCAASGYTVDNSCMAWFRQAPGKEREVVATIVTNNATSTFYADSVKGRFTVSHDNAKNTLNLQMNTLEPEDTAMYYCAADTKWIVCSRGYRYTPNWANHFNYWGQGTLVTVSS 0.144

Origin of measurements: patent US20220133913A1
